Each entry below lists one item and its recorded fold change (FC) value.
assay-explanation: Neurotoxicity against rat primary cortical neurons assessed as cell death at 1 ug/mL after 60 mins by LDH assay relative to control
Assay type: toxicity, cell-based
experimental-setup: cerebral cortex neuron, 1 h
Could you keep your reply to the number by itself?

Please review the following examples before continuing.
CCCCCCCCCCCCCCCCCCOC(=O)CN(C)C(=N)N: 0.65
CCCCCCCCCOC(=O)CN(C)C(=N)N: 0.52
CCCCOC(=O)CN(C)C(=N)N: 0.54
CCOC(=O)CN(C)C(=N)N: 0.53
CCCCCCCCOC(=O)CN(C)C(=N)N: 0.65

Let's switch to this molecule now.
fold change (FC) in this record for `CCCCCCCCCCCCOC(=O)CN(C)C(=N)N` : 0.67
